The reported numbers originate from ChEMBL document CHEMBL1201862.

# tgt: Zinc finger protein mex-5 (Caenorhabditis elegans, UniProt Q9XUB2)
# Sequence (Q9XUB2 whole entry): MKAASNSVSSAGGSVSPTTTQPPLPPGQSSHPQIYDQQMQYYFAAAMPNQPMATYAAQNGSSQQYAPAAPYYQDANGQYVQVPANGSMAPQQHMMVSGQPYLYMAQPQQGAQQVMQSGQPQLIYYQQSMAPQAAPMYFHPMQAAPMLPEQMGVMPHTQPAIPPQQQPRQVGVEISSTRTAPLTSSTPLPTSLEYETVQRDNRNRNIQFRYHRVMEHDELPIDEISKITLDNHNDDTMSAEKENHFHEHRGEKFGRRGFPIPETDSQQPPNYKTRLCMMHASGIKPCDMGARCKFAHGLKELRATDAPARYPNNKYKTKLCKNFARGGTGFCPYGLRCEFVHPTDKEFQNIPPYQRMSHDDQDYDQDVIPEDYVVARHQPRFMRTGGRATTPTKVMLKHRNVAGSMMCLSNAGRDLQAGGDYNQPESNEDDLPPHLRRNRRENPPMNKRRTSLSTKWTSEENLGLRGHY
# test name: potency of MEX-5 RNA-binding blockers – biochemical, C. elegans, fluorescence polarization, dose response (AID 1960)
Calls of active or inactive are those of the source.
assay metric: EC50

Illustrative cases are given below, each with its answer.
COC(=O)c1ccccc1-n1c(CCC(=O)O)ccc1-c1ccc(F)cc1 | > 300 µM (not active)
CN1C(=O)C(=N)c2c3ccccc3c(O)c3c(Br)ccc1c23 | < 0.06 µM (inconclusive)
CCCCOc1ccc(/C=C2/Sc3ccccc3C2=O)cc1 | 177 µM (inconclusive)
CN1C(=O)c2cccc3c(N)ccc(c23)C1=O | 0.116 µM (inconclusive)

Please report the recorded EC50 for Nc1ccc2c(c1)C/C(=C/c1ccco1)C2=O .
14.3 µM (active)

Look up EC50: CC1=CC(C)(C)N2C(=O)C3(C(C#N)=C(N)OC4=C3C(=O)CC(C)(C)C4)c3c(C)c(C)cc1c32 (stereo not given)
> 300 µM (not active)

# EC50 lookup, item CCCCOc1cccc(C2C(C(=O)c3ccc(C)o3)=C(O)C(=O)N2c2nnc(C)s2)c1 (stereo not given)
77.4 µM (active)

What value of EC50 has been recorded for this entry: CCN(CC)C(=O)c1sc2nc(-c3cccs3)cc(-c3cccs3)c2c1N
> 300 µM (not active)

May I ask what EC50 has been recorded for Cc1ccc(-c2nc(/C=N/c3ccc(O)cc3)c(O)o2)cc1 ?
> 300 µM (not active)

Quick check: EC50 of CCCCOc1c(Br)cc(/C=N/O)cc1OCC ?
> 300 µM (not active)

---

# tgt: UniProtKB Q96LD8
# Sequence (Q96LD8 whole entry): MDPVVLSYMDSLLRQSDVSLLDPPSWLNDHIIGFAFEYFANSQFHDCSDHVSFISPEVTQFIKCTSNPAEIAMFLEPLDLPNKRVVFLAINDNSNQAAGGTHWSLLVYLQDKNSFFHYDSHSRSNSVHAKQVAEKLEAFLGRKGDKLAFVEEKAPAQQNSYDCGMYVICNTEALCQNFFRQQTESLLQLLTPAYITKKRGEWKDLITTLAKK
# Type: functional
Active and inactive are the calls of the source.
# valid calls are yes (1) for active, no (0) for inactive; nothing else

CCCOc1ccc(C(=O)Nc2ccc(Cl)cn2)cc1 | yes (1)
CCC(COC)Oc1cc(NCc2ccccc2)c2ncn(C(C)C)c2c1 (stereo unspecified) | yes (1)
O=C1/C(=C\c2ccc(O)c(O)c2)SC(=S)N1Cc1ccccc1 | yes (1)
O=C1c2ccccc2C(=O)C12OC2c1cccc2ccccc12 (stereo unspecified) | yes (1)
O=c1[nH]c(N2CCOCC2)cc2ccccc12 | yes (1)

Lab note: next molecule to report on.
Recorded test call requested for COc1ccc(-c2cc3ccc(OC)cc3cn2)cc1
no (0)
